Molecular target: 5-HT2A receptors (Rattus norvegicus, UniProt P14842)
Construct: from tissue; host or cells: rat cortex membranes
Sequence (P14842 whole entry): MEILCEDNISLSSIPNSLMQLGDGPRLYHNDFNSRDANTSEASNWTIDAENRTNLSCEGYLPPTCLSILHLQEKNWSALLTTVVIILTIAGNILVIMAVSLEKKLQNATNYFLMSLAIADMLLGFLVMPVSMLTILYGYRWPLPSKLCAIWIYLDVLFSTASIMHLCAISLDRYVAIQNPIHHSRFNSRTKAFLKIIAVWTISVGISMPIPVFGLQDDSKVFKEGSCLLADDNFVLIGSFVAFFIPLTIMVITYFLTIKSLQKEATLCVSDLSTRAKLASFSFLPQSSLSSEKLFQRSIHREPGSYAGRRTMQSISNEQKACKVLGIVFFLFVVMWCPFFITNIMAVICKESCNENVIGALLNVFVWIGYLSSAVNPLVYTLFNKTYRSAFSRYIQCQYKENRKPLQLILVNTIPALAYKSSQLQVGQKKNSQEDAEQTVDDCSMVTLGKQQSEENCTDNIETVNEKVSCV
Assay: [3H]-ketanserin binding to 5-HT2A receptors (rat cortex membranes)
Details: Table 11
measurementKind: log IC50 (M) (b M)
The answer is to be given in b M; state only the numeric part.

Answered examples (2):
[
  {
    "compound": "CCCCCCN1CCN(c2ccccc2OC)CC1 [LDT 66]",
    "target": "5-HT2A receptors (Rattus norvegicus, UniProt P14842)",
    "endpointValue": "−5.57"
  },
  {
    "compound": "CCCCCCCN1CCN(c2ccccc2OC)CC1 [LDT 67]",
    "target": "5-HT2A receptors (Rattus norvegicus, UniProt P14842)",
    "endpointValue": "−5.53"
  }
]

Attention now turns to another entry.
Form field: reported log IC50 (M) of CCCCCCCCN1CCN(c2ccccc2OC)CC1 [LDT 68] −5.64

###

List of log CE50 ± EPM (M) LDT values.
Biological target: α1D adrenoceptors (Rattus norvegicus, UniProt P23944)
Construct: the rat thoracic aorta corresponds to a tissue expressing mainly α1D-adrenoceptors; from tissue; host or cells: rat thoracic aorta rings
Test: Phenylephrine-induced contraction inhibition in rat aorta (isometric contraction, Schild KB)
Format: cell-based
Conditions: Table 2; phenylephrine curve in presence of LTD 50 nM (62-69)
Just the number please, in M, no unit attached.

Some entries whose results are on file:
[
  {
    "chemicalStructure": "CCCCN1CCN(c2ccccc2OC)CC1",
    "log CE50 ± EPM (M) LDT": "−6.18"
  },
  {
    "chemicalStructure": "CCOc1ccccc1N1CCN(CC)CC1",
    "log CE50 ± EPM (M) LDT": "−5.87"
  },
  {
    "chemicalStructure": "CCCCCN1CCN(c2ccccc2OC)CC1",
    "log CE50 ± EPM (M) LDT": "−5.89"
  }
]

Lab note: next compound to report on.
Recorded log CE50 ± EPM (M) LDT for CCN1CCN(c2ccccc2OC)CC1 , please? −6.01

###

Molecular target: α1D adrenoceptors (Rattus norvegicus, UniProt P23944)
Construct: the rat thoracic aorta corresponds to a tissue expressing mainly α1D-adrenoceptors; from tissue; host or cells: rat thoracic aorta rings
Sequence (P23944 1-561): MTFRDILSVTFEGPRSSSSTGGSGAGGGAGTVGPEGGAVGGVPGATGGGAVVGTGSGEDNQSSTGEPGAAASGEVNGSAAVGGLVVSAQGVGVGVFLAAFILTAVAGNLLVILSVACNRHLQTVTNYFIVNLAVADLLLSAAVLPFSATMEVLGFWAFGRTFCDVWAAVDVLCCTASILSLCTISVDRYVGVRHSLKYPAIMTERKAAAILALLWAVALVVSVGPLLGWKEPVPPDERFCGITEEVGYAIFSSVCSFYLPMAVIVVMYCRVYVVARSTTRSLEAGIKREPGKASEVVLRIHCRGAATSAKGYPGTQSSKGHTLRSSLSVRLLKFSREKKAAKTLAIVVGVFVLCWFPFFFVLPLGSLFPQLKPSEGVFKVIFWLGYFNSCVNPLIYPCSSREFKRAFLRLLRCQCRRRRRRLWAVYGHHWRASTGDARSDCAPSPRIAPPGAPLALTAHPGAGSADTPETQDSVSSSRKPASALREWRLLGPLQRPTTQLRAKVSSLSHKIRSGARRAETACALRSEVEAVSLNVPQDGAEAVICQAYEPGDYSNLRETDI
Test: Phenylephrine-induced contraction inhibition in rat aorta (isometric contraction, Schild KB)
Type: cell-based
Conditions: Table 2; Schild equation; 50 nM (62-69) or 10 nM (70, 39)
measurementKind: log KB ± EPM (M)

Examples with their reported log KB ± EPM (M) follow.
[
  {
    "compound": "CCCN1CCN(c2ccccc2OC)CC1 [LDT 63]",
    "target": "α1D adrenoceptors (Rattus norvegicus, UniProt P23944)",
    "log KB ± EPM (M)": "−7.59 ± 0.12b M"
  },
  {
    "compound": "CCCCCCN1CCN(c2ccccc2OC)CC1 [LDT 66]",
    "target": "α1D adrenoceptors (Rattus norvegicus, UniProt P23944)",
    "log KB ± EPM (M)": "−8.78 ± 0.06a M"
  },
  {
    "compound": "CCCCCCCN1CCN(c2ccccc2OC)CC1 [LDT 67]",
    "target": "α1D adrenoceptors (Rattus norvegicus, UniProt P23944)",
    "log KB ± EPM (M)": "−8.74 ± 0.08a M"
  },
  {
    "compound": "CCN1CCN(c2ccccc2)CC1 [LDT 39]",
    "target": "α1D adrenoceptors (Rattus norvegicus, UniProt P23944)",
    "log KB ± EPM (M)": "−6.85 ± 0.08a M"
  }
]

Next:
Param item = CCN1CCN(c2ccccc2O)CC1 [LDT 70] ; retrieve measured log KB ± EPM (M). −7.07 ± 0.08a M

###

Biological target: 5-HT1A receptors (Rattus norvegicus)
Construct: Intrinsic Activity at Native 5-HT1A Receptors; from tissue; host or cells: rat hippocampus membranes
Sequence (P19327 whole entry): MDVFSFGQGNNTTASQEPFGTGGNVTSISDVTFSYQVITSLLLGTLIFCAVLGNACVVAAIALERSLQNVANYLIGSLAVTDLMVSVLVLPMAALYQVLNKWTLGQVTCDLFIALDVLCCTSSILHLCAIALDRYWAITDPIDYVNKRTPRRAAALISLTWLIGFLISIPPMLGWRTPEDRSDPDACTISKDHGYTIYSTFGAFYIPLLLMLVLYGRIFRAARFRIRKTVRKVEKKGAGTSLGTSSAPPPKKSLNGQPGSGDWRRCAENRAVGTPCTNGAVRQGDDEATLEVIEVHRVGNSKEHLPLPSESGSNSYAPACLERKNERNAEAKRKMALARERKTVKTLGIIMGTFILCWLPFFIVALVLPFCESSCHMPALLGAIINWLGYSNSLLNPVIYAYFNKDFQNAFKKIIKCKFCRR
Experiment: Binding of [3H]-8-OH-DPAT to 5-HT1A receptors (rat hippocampus membranes)
Settings: Table 8
Description: Membrane preparations of rat hippocampus according to previously described by HALL et al (1985) and PEROUTKA (1986) were performed. […] After the incubation period, the reaction was stopped by adding 4 ml of ice-cold solution containing 5 mM Tris (pH 7.4), followed by vacuum filtration on glass fiber filter (GMF 3, Filtrak®) previously soaked with solution 0.5% polyethylenoimine. […] The radioactivity retained on the filters was then determined in a liquid scintillation counter (Packard Tri-Carb 1600 TR). […]
measurementKind: log IC50 (M) (b M)
Give the value, in units of b M, as a plain number.

[
  {
    "compound": "CCCCCCCCN1CCN(c2ccccc2OC)CC1 [LDT 68]",
    "log IC50 (M) / b M": "−7.70"
  }
]

Here is another compound to look at.
Look at this compound and give its reported log IC50 (M). CCCCCCCN1CCN(c2ccccc2OC)CC1 [LDT 67] −7.42

###

Target: α1A adrenoceptors (Oryctolagus cuniculus, UniProt O02824)
Construct: from tissue; host or cells: rabbit liver membranes
Sequence (O02824 1-466): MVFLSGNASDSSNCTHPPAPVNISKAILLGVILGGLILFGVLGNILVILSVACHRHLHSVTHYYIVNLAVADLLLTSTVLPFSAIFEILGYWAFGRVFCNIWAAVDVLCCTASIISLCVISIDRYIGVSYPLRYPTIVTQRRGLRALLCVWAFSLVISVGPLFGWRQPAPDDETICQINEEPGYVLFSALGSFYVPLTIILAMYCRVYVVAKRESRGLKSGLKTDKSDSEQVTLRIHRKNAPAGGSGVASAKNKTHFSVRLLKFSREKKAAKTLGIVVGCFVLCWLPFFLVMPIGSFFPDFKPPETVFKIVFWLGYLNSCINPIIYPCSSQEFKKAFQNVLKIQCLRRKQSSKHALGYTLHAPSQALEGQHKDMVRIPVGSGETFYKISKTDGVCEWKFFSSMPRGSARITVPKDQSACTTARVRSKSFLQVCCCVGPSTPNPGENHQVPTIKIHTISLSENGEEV
Assay: Binding of [3H]-prazosin to α1A adrenoceptors (rabbit liver membranes)
Details: Table 5; Cheng-Prusoff; read-out: α1A Ki
Protocol: Following the protocol described previously in the literature, membrane preparations from rabbit liver homogenates were obtained. Such membrane preparations are enriched in adrenoceptor subtype α1A. […] In both assays, membrane preparations were incubated at 0° C. for 45 minutes. […] The radioactivity retained on the filters was then determined in a liquid scintillation counter (Packard Tri-Carb 1600 TR). […]
Please note: Ki exactly at 100 nM is not satisfied. Only values below 100 nM get satisfied.

[
  {
    "chemicalStructure": "CCCCN1CCN(c2ccccc2OC)CC1",
    "classLabel": "not satisfied"
  },
  {
    "chemicalStructure": "CCN1CCN(c2ccccc2O)CC1",
    "classLabel": "not satisfied"
  },
  {
    "chemicalStructure": "CCOc1ccccc1N1CCN(CC)CC1",
    "classLabel": "satisfied"
  }
]

Strictly below 100 nM in Ki? CCCN1CCN(c2ccccc2OC)CC1 not satisfied

Then what about the molecule CCCCCCCCN1CCN(c2ccccc2OC)CC1 ? satisfied

Ref: patent US20150011566A1
